TARGET SYSTEM: Cyclin-dependent kinase 1/cyclin B1 (Homo sapiens, UniProt P06493)
Sequence (P06493 whole entry, the tested form may be a part): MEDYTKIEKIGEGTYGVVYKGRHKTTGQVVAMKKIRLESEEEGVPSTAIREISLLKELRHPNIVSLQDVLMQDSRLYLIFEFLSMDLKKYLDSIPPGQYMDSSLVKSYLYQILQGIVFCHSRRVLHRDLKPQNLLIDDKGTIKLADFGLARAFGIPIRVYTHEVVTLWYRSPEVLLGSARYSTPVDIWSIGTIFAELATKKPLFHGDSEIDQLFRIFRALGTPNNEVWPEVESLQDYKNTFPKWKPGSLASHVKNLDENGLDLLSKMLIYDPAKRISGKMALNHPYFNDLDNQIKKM
Sequence (P14635 whole entry, further chain, the tested form may be a part): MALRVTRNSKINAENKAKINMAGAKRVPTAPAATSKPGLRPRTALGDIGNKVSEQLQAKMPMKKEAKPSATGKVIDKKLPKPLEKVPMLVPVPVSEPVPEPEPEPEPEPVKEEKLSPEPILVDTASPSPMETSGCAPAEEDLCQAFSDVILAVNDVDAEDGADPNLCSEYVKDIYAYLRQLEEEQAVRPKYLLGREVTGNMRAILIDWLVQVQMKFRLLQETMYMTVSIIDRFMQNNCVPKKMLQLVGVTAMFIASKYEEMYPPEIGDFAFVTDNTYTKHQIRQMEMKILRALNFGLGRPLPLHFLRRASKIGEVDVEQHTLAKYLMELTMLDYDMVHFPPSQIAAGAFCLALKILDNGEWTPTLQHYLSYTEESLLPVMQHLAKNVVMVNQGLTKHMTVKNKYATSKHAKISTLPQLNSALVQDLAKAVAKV
ASSAY INFO: Inhibition of human recombinant GST-fused CDK1/cyclin B expressed in insect Sf9 cells using RBER-CHKtide as substrate assessed as incorporation of 33Pi after 60 mins by microplate scintillation counting analysis
pKi: −log10 of the molar value.
METRIC: pKi

Please review the following examples before continuing.
COc1cc2oc3ncc(OCc4ccccc4)c(-c4ccccc4)c3c2cc1O : 5.72
CCCNC(=O)c1cnc2oc3ccc(O)cc3c2c1-c1ccccc1 : 5.80
CCNC(=O)c1cnc2oc3ccc(O)cc3c2c1-c1ccccc1 : 5.68

[a] NCCNC(=O)c1cnc2oc3ccc(O)cc3c2c1-c1ccccc1
[b] COc1cc2oc3ncc(OCc4ccccc4)c(-c4ccccc4)c3c2c(OC)c1O
Lookup: Field: entry with larger pKi (options a / b ). To answer, give the label that identifies your chosen option.
Found: b
(b: 6.70, a: 5.70)

* * *

TARGET SYSTEM: Glycogen synthase kinase-3 beta (Homo sapiens)
Sequence (P49841 whole entry, the tested form may be a part): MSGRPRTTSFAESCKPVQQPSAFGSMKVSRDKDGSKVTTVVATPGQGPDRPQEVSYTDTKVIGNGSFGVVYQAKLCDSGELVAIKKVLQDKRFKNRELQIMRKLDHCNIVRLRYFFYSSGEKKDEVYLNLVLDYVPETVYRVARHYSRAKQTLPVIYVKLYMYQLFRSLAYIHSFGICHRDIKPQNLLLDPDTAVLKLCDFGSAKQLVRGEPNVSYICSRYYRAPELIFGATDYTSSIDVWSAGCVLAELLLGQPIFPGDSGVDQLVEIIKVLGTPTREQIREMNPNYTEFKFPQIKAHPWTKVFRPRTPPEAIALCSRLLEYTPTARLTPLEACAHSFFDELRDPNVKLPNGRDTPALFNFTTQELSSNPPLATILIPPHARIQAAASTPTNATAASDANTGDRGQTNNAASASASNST
ASSAY INFO: Inhibition of human recombinant GST-fused GSK-3beta expressed in insect Sf9 cells using RBER-CHKtide as substrate assessed as incorporation of 33Pi after 60 mins by microplate scintillation counting analysis
EXPERIMENTAL CONTEXT: read-out: Ki
pKi: −log10 of the molar value.
METRIC: pKi

Solved entries (count: 2):
COc1cc2oc3ncc(OCc4ccccc4)c(-c4ccccc4)c3c2c(OC)c1O : 5.27
CCCNC(=O)c1cnc2oc3ccc(O)cc3c2c1-c1ccccc1 : 5.36

[a] NCCNC(=O)c1cnc2oc3ccc(O)cc3c2c1-c1ccccc1
[b] CNC(=O)c1cnc2oc3ccc(O)cc3c2c1-c1ccccc1
Lookup: Given the listed records, identify the one among a and b with higher pKi. // return label of chosen record
Found: a
(a: 5.32, b: 5.05)

* * *

TARGET SYSTEM: Cyclin-dependent kinase 5/CDK5 activator 1 (Homo sapiens, UniProt Q00535)
Sequence (Q00535 whole entry, the tested form may be a part): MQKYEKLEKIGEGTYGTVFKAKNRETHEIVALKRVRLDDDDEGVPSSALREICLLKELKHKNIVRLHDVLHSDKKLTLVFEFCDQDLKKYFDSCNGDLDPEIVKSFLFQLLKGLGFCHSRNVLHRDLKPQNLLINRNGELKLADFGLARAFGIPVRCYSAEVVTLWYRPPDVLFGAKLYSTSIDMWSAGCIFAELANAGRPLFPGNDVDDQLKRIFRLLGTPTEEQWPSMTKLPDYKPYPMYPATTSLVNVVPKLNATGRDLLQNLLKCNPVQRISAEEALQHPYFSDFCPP
Sequence (Q15078 whole entry, further chain, the tested form may be a part): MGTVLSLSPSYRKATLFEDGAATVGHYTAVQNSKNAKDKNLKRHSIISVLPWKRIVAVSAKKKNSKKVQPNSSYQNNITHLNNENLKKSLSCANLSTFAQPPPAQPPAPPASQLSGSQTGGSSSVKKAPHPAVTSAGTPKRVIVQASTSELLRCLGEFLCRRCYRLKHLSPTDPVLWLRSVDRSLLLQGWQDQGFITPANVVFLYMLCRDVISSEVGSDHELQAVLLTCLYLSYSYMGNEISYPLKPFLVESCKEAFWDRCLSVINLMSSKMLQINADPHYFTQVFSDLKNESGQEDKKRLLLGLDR
ASSAY INFO: Inhibition of human recombinant GST-fused CDK5/P25 expressed in insect Sf9 cells using RBER-CHKtide as substrate assessed as incorporation of 33Pi after 60 mins by microplate scintillation counting analysis
METRIC: Ki (µM)

COc1cc2oc3ncc(OCc4ccccc4)c(-c4ccccc4)c3c2c(OC)c1O : 13.6
NCCNC(=O)c1cnc2oc3ccc(O)cc3c2c1-c1ccccc1 : 12.9
CCCNC(=O)c1cnc2oc3ccc(O)cc3c2c1-c1ccccc1 : 14.6
COc1cc2oc3ncc(OCc4ccccc4)c(-c4ccccc4)c3c2cc1O : 13.8

* * *

TARGET SYSTEM: Cyclin-dependent kinase 5/CDK5 activator 1 (Homo sapiens)
ASSAY INFO: Inhibition of human recombinant GST-fused CDK5/P25 expressed in insect Sf9 cells using RBER-CHKtide as substrate assessed as incorporation of 33Pi after 60 mins by microplate scintillation counting analysis
METRIC: Ki (µM)

[1] COc1ccc2oc3ncc(OCc4ccccc4)c(-c4ccccc4)c3c2c1
[2] CCNC(=O)c1cnc2oc3ccc(O)cc3c2c1-c1ccccc1
Lookup: Lower value of Ki belongs to which: 1 or 2 ? Provide the label of your selected option as the answer.
Found: 2
(2: 16.7 µM, 1: 25.1 µM)

The measurements presented in this section are drawn from ChEMBL document CHEMBL3217736.
